experimentalSystem: Hck T338F (Homo sapiens, UniProt P08631, T333F)
Construct: Recombinant near-full-length kinases, consisting of the SH2, SH3 and kinase domains plus the negative regulatory tail
Sequence (P08631 78-526 T333F limits assumed): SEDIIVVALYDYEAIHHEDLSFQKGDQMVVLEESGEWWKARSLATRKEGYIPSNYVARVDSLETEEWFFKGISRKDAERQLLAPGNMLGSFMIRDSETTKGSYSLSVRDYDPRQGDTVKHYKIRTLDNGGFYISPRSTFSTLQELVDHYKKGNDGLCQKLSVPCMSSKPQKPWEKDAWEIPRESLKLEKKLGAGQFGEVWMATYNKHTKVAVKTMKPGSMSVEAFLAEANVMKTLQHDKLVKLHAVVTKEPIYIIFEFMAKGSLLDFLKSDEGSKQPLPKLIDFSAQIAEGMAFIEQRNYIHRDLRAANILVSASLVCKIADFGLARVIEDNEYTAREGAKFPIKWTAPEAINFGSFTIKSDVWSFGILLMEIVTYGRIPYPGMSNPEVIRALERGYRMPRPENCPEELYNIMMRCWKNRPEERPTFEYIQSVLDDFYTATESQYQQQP
measurementProtocol: Z'-LYTE in vitro kinase assay
testConditions: read-out: A-419259 IC50; Fig 5B; Hck T338F; ATP at Km; mean ± SE, three independent determinations
measurementType: IC50 (nM)
Give a bare numeral; the unit nM is implied.

Short answer please: IC50, Hck T338F (Homo sapiens, UniProt P08631, T333F), entry CN1CCN(C2CCC(n3cc(-c4ccc(Oc5ccccc5)cc4)c4c(N)ncnc43)CC2)CC1 (stereo not shown)
201

---

Tested on: TF-1/Flt3-ITD + Hck cells
measurementProtocol: CellTiter-Blue cell viability
Format: cell-based, human
testConditions: Fig 3; Flt3-ITD: WT; SFK: Hck; 72 hours; read-out: IC50, nM (growth inhibition)
measurementType: IC50 (nM)
Give a bare numeral; the unit nM is implied.

Fill blank: measured IC50 of the compound CN1CCN(C2CCC(n3cc(-c4ccc(Oc5ccccc5)cc4)c4c(N)ncnc43)CC2)CC1 (stereo not shown) [A-419259] is ____.
15.4

---

experimentalSystem: Fgr T338M (Homo sapiens, UniProt P09769, T334M)
Construct: Recombinant near-full-length kinases, consisting of the SH2, SH3 and kinase domains plus the negative regulatory tail
Sequence (P09769 77-529 T334M limits assumed): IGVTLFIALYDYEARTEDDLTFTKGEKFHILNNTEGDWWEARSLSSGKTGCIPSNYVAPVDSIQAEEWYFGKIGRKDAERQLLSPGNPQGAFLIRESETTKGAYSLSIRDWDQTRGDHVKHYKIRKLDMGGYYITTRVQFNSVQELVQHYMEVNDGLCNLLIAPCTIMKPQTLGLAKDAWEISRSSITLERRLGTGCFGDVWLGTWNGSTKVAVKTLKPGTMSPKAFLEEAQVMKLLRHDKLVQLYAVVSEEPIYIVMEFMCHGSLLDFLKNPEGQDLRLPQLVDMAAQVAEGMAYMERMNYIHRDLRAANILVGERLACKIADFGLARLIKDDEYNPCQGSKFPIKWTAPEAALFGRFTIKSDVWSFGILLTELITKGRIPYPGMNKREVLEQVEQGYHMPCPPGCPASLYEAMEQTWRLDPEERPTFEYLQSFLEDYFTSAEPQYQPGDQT
measurementProtocol: Z'-LYTE in vitro kinase assay
testConditions: read-out: A-419259 IC50; Fig 5B; Fgr T338M; ATP at Km; mean ± SE, three independent determinations
measurementType: IC50 (nM)
Give a bare numeral; the unit nM is implied.

Fill blank: measured IC50 of the molecule CN1CCN(C2CCC(n3cc(-c4ccc(Oc5ccccc5)cc4)c4c(N)ncnc43)CC2)CC1 (stereo not shown) [A-419259] is ____.
161

---

experimentalSystem: Lyn T338F (Homo sapiens, UniProt P07948, T319F)
Construct: Recombinant near-full-length kinases, consisting of the SH2, SH3 and kinase domains plus the negative regulatory tail
Sequence (P07948 63-512 T319F limits assumed): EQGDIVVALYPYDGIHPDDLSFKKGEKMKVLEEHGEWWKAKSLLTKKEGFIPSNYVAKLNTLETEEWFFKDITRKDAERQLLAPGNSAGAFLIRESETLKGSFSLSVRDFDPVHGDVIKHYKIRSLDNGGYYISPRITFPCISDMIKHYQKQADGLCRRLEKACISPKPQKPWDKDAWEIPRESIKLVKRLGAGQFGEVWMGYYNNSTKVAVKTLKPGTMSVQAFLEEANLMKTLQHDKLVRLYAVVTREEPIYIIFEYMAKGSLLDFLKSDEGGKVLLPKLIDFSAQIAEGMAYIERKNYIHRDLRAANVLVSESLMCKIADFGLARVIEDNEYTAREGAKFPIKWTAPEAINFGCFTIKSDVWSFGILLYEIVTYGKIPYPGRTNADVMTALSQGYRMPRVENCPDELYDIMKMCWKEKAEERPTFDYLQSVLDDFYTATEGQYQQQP
measurementProtocol: Z'-LYTE in vitro kinase assay
testConditions: read-out: A-419259 IC50, Fig 5B, ATP at Km, mean ± SE, three independent determinations
measurementType: pIC50
To interpret pIC50, take it as minus log10 of a concentration measured in moles per litre.

Fill blank: measured pIC50 of the compound CN1CCN(C2CCC(n3cc(-c4ccc(Oc5ccccc5)cc4)c4c(N)ncnc43)CC2)CC1 (stereo not shown) [A-419259] is ____.
6.62

---

System: MOLM13 R3 (A-419259-resistant population)
measurementProtocol: CellTiter-Blue cell viability
Format: cell-based, human
testConditions: read-out: A-419259 Sensitivity (IC50, nM) Initial, mean ± SE (n = 3)
Method: Cell viability was assessed using the CellTiter-Blue reagent according to the manufacturer’s instructions (Promega). Fluorescence intensity, which correlates directly with viable cell number, was measured using a SpectraMax M5 microplate reader. Each experiment included three technical replicates per condition, and each experiment was repeated at least three times. […] Viability of each cell population was measured three times per week using the CellTiter-Blue assay.
measurementType: IC50 (nM)
Give a bare numeral; the unit nM is implied.

Fill blank: measured IC50 of the molecule CN1CCN(C2CCC(n3cc(-c4ccc(Oc5ccccc5)cc4)c4c(N)ncnc43)CC2)CC1 (stereo not shown) is ____.
473

---

Test system: MV4-11 R2 (A-419259-resistant population)
measurementProtocol: CellTiter-Blue cell viability
Format: cell-based, human
testConditions: read-out: A-419259 Sensitivity (IC50, nM) Initial, mean ± SE (n = 3)
measurementType: IC50 (nM)
Give a bare numeral; the unit nM is implied.

Short answer please: IC50, MV4-11 R2 (A-419259-resistant population), entry CN1CCN(C2CCC(n3cc(-c4ccc(Oc5ccccc5)cc4)c4c(N)ncnc43)CC2)CC1 (stereo not shown) [A-419259]
410

---

experimentalSystem: Fgr T338L (Homo sapiens, UniProt P09769, T334L)
Construct: Recombinant near-full-length kinases, consisting of the SH2, SH3 and kinase domains plus the negative regulatory tail
Sequence (P09769 77-529 T334L limits assumed): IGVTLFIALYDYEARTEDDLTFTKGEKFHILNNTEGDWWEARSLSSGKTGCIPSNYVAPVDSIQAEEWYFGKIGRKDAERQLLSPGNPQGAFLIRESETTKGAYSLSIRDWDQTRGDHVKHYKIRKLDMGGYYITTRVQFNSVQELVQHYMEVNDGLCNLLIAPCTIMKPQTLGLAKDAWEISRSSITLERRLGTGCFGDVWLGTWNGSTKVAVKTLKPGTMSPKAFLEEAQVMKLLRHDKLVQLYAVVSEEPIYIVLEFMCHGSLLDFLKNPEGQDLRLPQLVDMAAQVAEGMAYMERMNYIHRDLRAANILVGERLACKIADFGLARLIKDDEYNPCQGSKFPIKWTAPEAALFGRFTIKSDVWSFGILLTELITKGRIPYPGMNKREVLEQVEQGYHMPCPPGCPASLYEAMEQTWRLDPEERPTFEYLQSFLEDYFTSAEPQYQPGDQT
measurementProtocol: Z'-LYTE in vitro kinase assay
testConditions: read-out: A-419259 IC50, Fig 5B, ATP at Km, mean ± SE, three independent determinations
measurementType: IC50 (nM)
Give a bare numeral; the unit nM is implied.

Fill blank: measured IC50 of the molecule CN1CCN(C2CCC(n3cc(-c4ccc(Oc5ccccc5)cc4)c4c(N)ncnc43)CC2)CC1 (stereo not shown) is ____.
218

---

System: TF-1/Flt3-ITD cells
measurementProtocol: CellTiter-Blue cell viability
Assay type: cell-based, human
testConditions: Fig 9A; control TF-1/Flt3-ITD cells; 72 hours; read-out: IC50 (growth arrest)
measurementType: pIC50
To interpret pIC50, take it as minus log10 of a concentration measured in moles per litre.

Fill blank: measured pIC50 of the compound CN1CCN(C2CCC(n3cc(-c4ccc(Oc5ccccc5)cc4)c4c(N)ncnc43)CC2)CC1 (stereo not shown) is ____.
7.59

---

experimentalSystem: Lyn T338L (Homo sapiens, UniProt P07948, T319L)
Construct: Recombinant near-full-length kinases, consisting of the SH2, SH3 and kinase domains plus the negative regulatory tail
Sequence (P07948 63-512 T319L limits assumed): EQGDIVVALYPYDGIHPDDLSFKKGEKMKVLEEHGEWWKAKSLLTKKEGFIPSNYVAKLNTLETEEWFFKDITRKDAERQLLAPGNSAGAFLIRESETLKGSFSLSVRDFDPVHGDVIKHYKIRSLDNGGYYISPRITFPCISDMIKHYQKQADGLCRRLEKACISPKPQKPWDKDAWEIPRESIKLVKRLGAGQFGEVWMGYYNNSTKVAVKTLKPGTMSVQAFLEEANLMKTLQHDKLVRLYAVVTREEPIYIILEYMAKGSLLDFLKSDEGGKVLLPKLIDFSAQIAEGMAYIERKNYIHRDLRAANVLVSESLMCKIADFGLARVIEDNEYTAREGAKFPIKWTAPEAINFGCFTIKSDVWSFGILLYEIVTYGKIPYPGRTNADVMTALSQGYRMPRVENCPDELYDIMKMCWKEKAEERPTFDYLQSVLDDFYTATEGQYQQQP
measurementProtocol: Z'-LYTE in vitro kinase assay
testConditions: read-out: A-419259 IC50, Fig 5B, ATP at Km, mean ± SE, three independent determinations
measurementType: IC50 (µM)
Give a bare numeral; the unit µM is implied.

Fill blank: measured IC50 of the compound CN1CCN(C2CCC(n3cc(-c4ccc(Oc5ccccc5)cc4)c4c(N)ncnc43)CC2)CC1 (stereo not shown) [A-419259] is ____.
0.13

---

Test system: TF-1/Flt3-ITD N676S + Hck cells
measurementProtocol: CellTiter-Blue cell viability
Type: cell-based, human
testConditions: S9 Fig, 48 h
measurementType: IC50 (nM)
Give a bare numeral; the unit nM is implied.

Short answer please: IC50, TF-1/Flt3-ITD N676S + Hck cells, entry CN1CCN(C2CCC(n3cc(-c4ccc(Oc5ccccc5)cc4)c4c(N)ncnc43)CC2)CC1 (stereo not shown)
129

---

Tested on: MOLM13 cells (parent)
measurementProtocol: CellTiter-Blue cell viability
Format: cell-based, human
testConditions: read-out: A-419259 Sensitivity (IC50, nM) Initial, mean ± SE (n = 3)
measurementType: IC50 (nM)
Give a bare numeral; the unit nM is implied.

Fill blank: measured IC50 of the molecule CN1CCN(C2CCC(n3cc(-c4ccc(Oc5ccccc5)cc4)c4c(N)ncnc43)CC2)CC1 (stereo not shown) [A-419259] is ____.
40.3

---

Tested on: TF-1/Flt3-ITD N676S + Fgr cells
measurementProtocol: CellTiter-Blue cell viability
Type: cell-based, human
testConditions: S9 Fig, 48 h
measurementType: pIC50
To interpret pIC50, take it as minus log10 of a concentration measured in moles per litre.

Fill blank: measured pIC50 of the compound CN1CCN(C2CCC(n3cc(-c4ccc(Oc5ccccc5)cc4)c4c(N)ncnc43)CC2)CC1 (stereo not shown) [A-419259] is ____.
6.76

---

System: MOLM14 cells (parent)
measurementProtocol: CellTiter-Blue cell viability
Assay type: cell-based, human
testConditions: read-out: A-419259 Sensitivity (IC50, nM) Post-holiday, after 4 weeks passage in the absence of inhibitor, mean ± SE (n = 3)
measurementType: IC50
For clarity, give the value followed by its unit.

Fill blank: measured IC50 of the compound CN1CCN(C2CCC(n3cc(-c4ccc(Oc5ccccc5)cc4)c4c(N)ncnc43)CC2)CC1 (stereo not shown) [A-419259] is ____.
26.4 nM

---

experimentalSystem: Fgr T338F (Homo sapiens, UniProt P09769, T334F)
Construct: Recombinant near-full-length kinases, consisting of the SH2, SH3 and kinase domains plus the negative regulatory tail
measurementProtocol: Z'-LYTE in vitro kinase assay
testConditions: read-out: A-419259 IC50; Fig 5B; Fgr T338F; ATP at Km; mean ± SE, three independent determinations
measurementType: pIC50
To interpret pIC50, take it as minus log10 of a concentration measured in moles per litre.

Short answer please: pIC50, Fgr T338F (Homo sapiens, UniProt P09769, T334F), entry CN1CCN(C2CCC(n3cc(-c4ccc(Oc5ccccc5)cc4)c4c(N)ncnc43)CC2)CC1 (stereo not shown) [A-419259]
6.55

---

experimentalSystem: Hck T338L (Homo sapiens, UniProt P08631, T333L)
Construct: Recombinant near-full-length kinases, consisting of the SH2, SH3 and kinase domains plus the negative regulatory tail
Sequence (P08631 78-526 T333L limits assumed): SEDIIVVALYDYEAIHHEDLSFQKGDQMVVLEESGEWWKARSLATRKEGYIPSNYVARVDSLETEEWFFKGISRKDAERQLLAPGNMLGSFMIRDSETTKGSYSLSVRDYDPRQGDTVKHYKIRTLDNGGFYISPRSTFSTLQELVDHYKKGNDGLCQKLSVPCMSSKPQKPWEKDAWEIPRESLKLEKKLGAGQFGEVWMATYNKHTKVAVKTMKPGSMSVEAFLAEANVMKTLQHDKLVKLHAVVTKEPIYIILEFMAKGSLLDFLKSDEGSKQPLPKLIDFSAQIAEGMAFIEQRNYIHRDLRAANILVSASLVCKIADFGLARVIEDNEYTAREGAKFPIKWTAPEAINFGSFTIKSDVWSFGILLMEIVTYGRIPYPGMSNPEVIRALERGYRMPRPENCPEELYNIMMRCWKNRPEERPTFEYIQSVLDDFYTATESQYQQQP
measurementProtocol: Z'-LYTE in vitro kinase assay
testConditions: read-out: A-419259 IC50; Fig 5B; Hck T338L; ATP at Km; mean ± SE, three independent determinations
measurementType: IC50

Short answer please: IC50, Hck T338L (Homo sapiens, UniProt P08631, T333L), entry CN1CCN(C2CCC(n3cc(-c4ccc(Oc5ccccc5)cc4)c4c(N)ncnc43)CC2)CC1 (stereo not shown)
41 nM
